From: patent US8901126B2

- assayed_target: PDE9 (Homo sapiens)
- Sequence (O76083 whole entry): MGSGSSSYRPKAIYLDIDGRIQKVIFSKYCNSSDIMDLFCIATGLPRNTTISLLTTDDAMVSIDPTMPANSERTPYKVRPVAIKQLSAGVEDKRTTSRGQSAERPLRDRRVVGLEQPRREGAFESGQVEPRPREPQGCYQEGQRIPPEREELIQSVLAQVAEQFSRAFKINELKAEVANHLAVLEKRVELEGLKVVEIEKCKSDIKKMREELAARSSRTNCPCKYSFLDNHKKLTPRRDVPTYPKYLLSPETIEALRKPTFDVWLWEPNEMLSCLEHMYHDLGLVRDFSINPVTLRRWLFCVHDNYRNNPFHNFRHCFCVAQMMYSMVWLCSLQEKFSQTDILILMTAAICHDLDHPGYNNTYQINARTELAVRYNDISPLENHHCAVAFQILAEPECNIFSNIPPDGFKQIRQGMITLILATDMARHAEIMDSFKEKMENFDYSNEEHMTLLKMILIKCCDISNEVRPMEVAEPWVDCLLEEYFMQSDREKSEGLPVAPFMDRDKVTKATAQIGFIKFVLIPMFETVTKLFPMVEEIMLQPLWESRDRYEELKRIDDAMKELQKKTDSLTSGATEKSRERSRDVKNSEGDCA
- test: PDE9-inhibiting activity (SPA, 3H-cGMP degradation)
- condition_parameters: PDE9-inhibiting activity (IC50 values), cGMP 1 μM, 30° C.
# if measured IC50 < 50 nM: 1  # else: 0

compound: COc1cc2c(cn1)N(C(=O)c1cc3[nH]c(=O)c4cnc(C5CCOC5)n4c3cc1C)CC2 (single isomer, unassigned) [Example 27(b)]
cat: 1

Task item: Check if IC50 falls below 50 nM for Cc1cc2c(cc1C(=O)N1CCc3cc(Br)cnc31)[nH]c(=O)c1cnc(C3CCOC3)n12 (single isomer, unassigned) [Example 29(a)] .
Reply: 1

Task item: Please state whether IC50 is below 50 nM for CCc1cc2c(cc1C(=O)N1Cc3c(F)ccc(F)c3C1)[nH]c(=O)c1nnc(C3CCC3)n12
Reply: 0

Task item: Strictly below 50 nM: is that where IC50 of COc1cc2c(cn1)N(C(=O)c1cc3[nH]c(=O)c4cnc(C5CCOCC5)n4c3cc1Cl)CC2 sits?
Reply: 1

Task item: Confirm or reject: IC50 of CCc1cnc2c(c1)CCN2C(=O)c1cc2[nH]c(=O)c3cnc(C4CCOC4)n3c2cc1C (centres unmarked) [Example 28] lies strictly below 50 nM
Reply: 0

Task item: Bench note: check whether CCc1cnc2c(c1)CCN2C(=O)c1cc2[nH]c(=O)c3cnc(C4CCOC4)n3c2cc1C (single isomer, unassigned) [Example 28(a)] shows IC50 below 50 nM
Reply: 0

Task item: Quick check: IC50 of COc1cc2c(cn1)N(C(=O)c1cc3[nH]c(=O)c4cnc(C5CCOC5)n4c3cc1C)CC2 (centres unmarked) [Example 27] under 50 nM?
Reply: 0

Task item: API: query returns whether the compound falls strictly under 50 nM in IC50. Query: CCc1cc2c(cc1C(=O)N1CCc3cc(F)ccc31)[nH]c(=O)c1nnc(CC3CC3)n12
Reply: 1
